All figures here come from BigSolDB 2.1.

- assaySetup: in n-hexane, 304.15 K
property: solubility (mole fraction)
Output: the number by itself.

Q: Would you mind telling me what solubility (mole fraction) value was observed for `C[C@@H]1CC[C@H]2[C@@H](C)C(=O)O[C@@H]3O[C@@]4(C)CC[C@@H]1[C@]32OO4` ?
Result: 0.000201

* * *

- assaySetup: in n-hexane, 309.15 K
property: solubility (mole fraction)
Reply with the value as a number alone.

Q: For `C[C@@H]1CC[C@H]2[C@@H](C)C(=O)O[C@@H]3O[C@@]4(C)CC[C@@H]1[C@]32OO4` , what is its reported solubility (mole fraction)?
Result: 0.00028

* * *

- assaySetup: in ethanol, 289.15 K
property: solubility (mole fraction)
Reply: number alone, nothing else.

Q: solubility (mole fraction) lookup needed for `C[C@@H]1CC[C@H]2[C@@H](C)C(=O)O[C@@H]3O[C@@]4(C)CC[C@@H]1[C@]32OO4` , thanks.
Result: 0.00305

* * *

- assaySetup: in isopropyl acetate, 289.15 K
property: solubility (mole fraction)
# output: bare number, no unit

Q: What value of solubility (mole fraction) has been recorded for this entry: `C[C@@H]1CC[C@H]2[C@@H](C)C(=O)O[C@@H]3O[C@@]4(C)CC[C@@H]1[C@]32OO4`
Result: 0.00838

* * *

- assaySetup: in n-butanol, 323.15 K
property: solubility (mole fraction)
Quick one: just the number, no unit, thanks!

Q: I have this molecule here, `C[C@@H]1CC[C@H]2[C@@H](C)C(=O)O[C@@H]3O[C@@]4(C)CC[C@@H]1[C@]32OO4` , and I need its recorded solubility (mole fraction).
Result: 0.0147

* * *

- assaySetup: in ethanol, 319.15 K
property: solubility (mole fraction)
Write the number on its own, no unit after it.

Q: Any idea what its solubility (mole fraction) is? The compound is `C[C@@H]1CC[C@H]2[C@@H](C)C(=O)O[C@@H]3O[C@@]4(C)CC[C@@H]1[C@]32OO4`
Result: 0.0125

* * *

- assaySetup: in n-hexane, 284.15 K
property: solubility (mole fraction)

Q: Find the recorded solubility (mole fraction) belonging to `C[C@@H]1CC[C@H]2[C@@H](C)C(=O)O[C@@H]3O[C@@]4(C)CC[C@@H]1[C@]32OO4` and report it.
Result: 5e-05

* * *

- assaySetup: in acetonitrile, 304.15 K
property: solubility (mole fraction)
Field format: numeric only.

Q: Reported solubility (mole fraction), compound `C[C@@H]1CC[C@H]2[C@@H](C)C(=O)O[C@@H]3O[C@@]4(C)CC[C@@H]1[C@]32OO4` : ____
Result: 0.00254

* * *

- assaySetup: in ethyl acetate, 323.15 K
property: solubility (mole fraction)
Keep it simple and answer with nothing but the number.

Q: What value of solubility (mole fraction) has been reported for the following compound? `C[C@@H]1CC[C@H]2[C@@H](C)C(=O)O[C@@H]3O[C@@]4(C)CC[C@@H]1[C@]32OO4`
Result: 0.0647

* * *

- assaySetup: in ethyl acetate, 319.15 K
property: solubility (mole fraction)
The answer should be a number; do not append a unit.

Q: Requested field: solubility (mole fraction). Item: `C[C@@H]1CC[C@H]2[C@@H](C)C(=O)O[C@@H]3O[C@@]4(C)CC[C@@H]1[C@]32OO4`
Result: 0.0514

* * *

- assaySetup: in toluene, 289.15 K
property: solubility (mole fraction)
# respond with the number and nothing more

Q: I'd like to know its solubility (mole fraction). The molecule in question is `C[C@@H]1CC[C@H]2[C@@H](C)C(=O)O[C@@H]3O[C@@]4(C)CC[C@@H]1[C@]32OO4`
Result: 0.0226
